# experimental-protocol: yeast display, Sf9 membrane polyspecificity reagent, FACS + sequencing; frameworks hold sequencing errors
value-type: polyreactivity (PSR sort gate)

INSERT INTO assay_data (polymer_sequence, meas_value) VALUES
  ('QVQLVESGGGLVQAGGSLRLSCAASGRIFYYNAMGWYRQAPGKESELVAAIRYSGGSTSYADSVKGRFTISRDNAKNTVYLQMNSLKPEDTAVYYCAASTSNRWKLNYWGQGTQVTVSS', 'high polyreactivity'),
  ('QVQLVESGGGLVQAGGSIRLSCAASGRTFIYNVMGWYRQAPGKERELVAAISSGGNTNYADSVKGRFTISRDNAKNTVYLQMNSLKPEDPAVYYCNARWPLGVSRGGMGYWGQGTQVTVSS', 'high polyreactivity'),
  ('QVQLVESGGGLVQAGGSLRLSCAASGSILWEYAMGWYRQAHGKERELVATISSGGCSTNYADSVKGRFTISRDNAKHNFYLPMKSLKPEDTAVYYCNALTSYLVTYEFDSWGIGTQVTVSS', 'low polyreactivity'),
  ('QVQLEESGGGVVQAGGSLRLSCAASGRTLSHYAIGWYRQAPGKERELVAVISWSGTSTYYADSVKGRFTISRDNAKNTVYLQMNSLKPEDTAVYYCNADTYGYYLWTGAVSAGDDYWGQGTQVTVSS', 'low polyreactivity'),
  ('QVQLVESGGGLVKAGGSLRLSCAASGNTFGRNVMGWYRPAPGKERELVAAINRGGSTTYADSVKGRFTISRDNAKNTVYLQMNSLKPEDTAVYYCNAEIRGQSYRFDYWGQGTQVTVSS', 'high polyreactivity'),
  ('QVQLVESGGGLVQAGGSLRLSCAASGRTFVLNAMGWYRQAPGKERELVAAITLGGGSTYADSVKGRFTISRDNAKNTVYLQMNSLKPEDTAVYYCAADFHYPDFEYWGQGTQVTVSS', 'low polyreactivity'),
  ('QVQLVESGGGLFQAVGSLRLSCAASGFIFYDYAMGWYRQAPGKEMELVAAISKRGGSTYYADSVKGRFTISRDNAKNTVYLQMNSLKPEDTADYYCAAALWGWRYYYWGQGTQVTVSS', 'high polyreactivity');

* * *

# experimental-protocol: yeast display, Sf9 membrane polyspecificity reagent, FACS + sequencing; frameworks hold sequencing errors
value-type: polyreactivity (PSR sort gate)

INSERT INTO assay_data (polymer_sequence, value_type, meas_value) VALUES
  ('QVQLVESGGGLVQEGGSLRLICAASGRIFAGYAMGWYSQAPGKERELVAAISQDGGSTYYADSVKGRFTISRDNAKNTVYLQMNSLKPEDTAVYYCAAEDPDSWLPWDLFDYWGQGTQVTVSS', 'polyreactivity (PSR sort gate)', 'low polyreactivity'),
  ('QVQLVESGGGLVQAGGSLRLSCAASGSTFYDYVMGWYRQAPGKERELVAVISSSGSTNYADSVKGRITISRDNAKNTVYLQMNSLKTEDTAVYYCAAEYTFDWLEFDYWGQGTQVTVSS', 'polyreactivity (PSR sort gate)', 'low polyreactivity'),
  ('QVQLVESGGGLVQAGGSLRLSCAASGFISFAYAMAWYRQAPGKERELVAGISRSGDSTYYADSVKGRFTISRDNAKNTVYLQMNSLKPEDTAVYYCAARQVVWFDYTTAQVGSYKVNYWGQGTQVTVSS', 'polyreactivity (PSR sort gate)', 'low polyreactivity'),
  ('QVQLVESGGGLVQAGGSLRLSCAASGIIFGKNAMGWYRHAPGKERELVAAISSSGGSTYYADSVKGRFTISRDNAKNTVYLQMNSLKPEDTAVYYCATERGSRRSGSRMDYWGQGTQVTVSS', 'polyreactivity (PSR sort gate)', 'high polyreactivity'),
  ('QVQLVESGGGLVQAGGSLRLSCAASGSTFFPYAMGWYRQAPGKERELVATINYSGGGTYYADSVKGRFTISRDNAKNTGYLQMNSLKPEDTAVYYCAKTLARFDRGYYWGQGTQVTVSS', 'polyreactivity (PSR sort gate)', 'low polyreactivity'),
  ('QVQLVESGGGLVQAGGSLRLSCAASGSTFRYYAMGWYRQAPGKERELVAANTYRATSTYYADSVKGRFTISRDNAKNTVYLQMNSLKPEDTAVYYCAAYSTYSRYDYWGQGTQVTVSS', 'polyreactivity (PSR sort gate)', 'high polyreactivity'),
  ('QVHLVESGGGIVQAGGSHRLSCAATGRIFAPYAMGWYRQAPGKERELVAAISWSDVSTDYADSVKGRFTISRDNAKNTVYLQMNSLKPEDTAVSYCAAAYPGYRGWYYYWGQGTQVTVSS', 'polyreactivity (PSR sort gate)', 'high polyreactivity'),
  ('QVQLVESGGGLVQAGGSLRLSCAASGRTFDYNAMGWYRQAPGKERELVAAISGSGTRTFYADSVKGRFTISRDNAKNTVYLQMNSLKPEDTAVYYCAASHGWSKSIFYYWGQGTQVTVSS', 'polyreactivity (PSR sort gate)', 'high polyreactivity'),
  ('QVQLVESGGGLVQAGGSLRLSCAASGRTFQYYTMGWYRQAPGKERELVAAITWRGGTTYYADSVKGRFTISRDNAKNTVYLQMNSLKPEDTAVYYCAAYSPDYGFDYWGQGTQVTVSS', 'polyreactivity (PSR sort gate)', 'high polyreactivity'),
  ('QVQLVESGGGLVQAGGSLRLSCAASGSIFGAYTMGGYRQAPGKERELVAAITWSGGCTYYADSVKGRFTISRDNAKNTVYLQMNSLKPEDTAVYYCAAVFLRARYKYNYWGQGTQVTVSS', 'polyreactivity (PSR sort gate)', 'high polyreactivity'),
  ('QVQLVESGGGLVQAGGSLRLSCAASGRTIRYYTMGWYRQAPGKEREFVAAISSTGGTYYADSVKGRFTISRDNAKNTVYLQMNSLKPEDTAVYYCAATFIQVVVNVQLYDYDYWGQGTQVTVSS', 'polyreactivity (PSR sort gate)', 'low polyreactivity'),
  ('QVQLLESGGGLVQAGGSLRISCAASGSTFVSNAMGWYRQAPGKERELVAAISRSAGRTYYADSVKGRFTISRDTAKNTVYLQMTSLKPEDTAVYYCAARVVHCFGFWGQGTQVTVSS', 'polyreactivity (PSR sort gate)', 'high polyreactivity');
